Experiment: Serum pharmacokinetics of DHM after PO and IP administration
Format: in vivo, mice
Settings: C57BL/6J, mouse, serum; male mice, DHM 50 mg/kg PO; read-out: Serum T1/2 (converted)
measurement_kind: half-life (h)
Numbers only here, please. The scale is h.

State the recorded half-life for this entry: O=C1c2c(O)cc(O)cc2O[C@H](c2cc(O)c(O)c(O)c2)[C@H]1O [DHM, Dihydromyricetin] 1.91

* * *

Test: Serum pharmacokinetics of DHM after PO and IP administration
Type: in vivo, mice
Conditions: C57BL/6J, mouse, serum; female mice, DHM 50 mg/kg PO; read-out: Serum T1/2 (converted)
measurement_kind: half-life (h)
Numbers only here, please. The scale is h.

State the recorded half-life for this entry: O=C1c2c(O)cc(O)cc2O[C@H](c2cc(O)c(O)c(O)c2)[C@H]1O [DHM, Dihydromyricetin] 1.83

* * *

Experiment: Serum pharmacokinetics of DHM after PO and IP administration
Format: in vivo, mice
Conditions: male, C57BL/6J, mouse, serum, po, 50 mg/kg, male mice, DHM 50 mg/kg PO; read-out: Serum AUC0→24
measurement_kind: AUC(0-t) (µM·h)
Numbers only here, please. The scale is µM·h.

State the recorded AUC(0-t) for this entry: O=C1c2c(O)cc(O)cc2O[C@H](c2cc(O)c(O)c(O)c2)[C@H]1O [DHM, Dihydromyricetin] 2.51

* * *

Assay: Serum pharmacokinetics of DHM after PO and IP administration
Type: in vivo, mice
Details: C57BL/6J, mouse, serum; female mice, DHM 50 mg/kg IP
measurement_kind: Tmax (min)
Numbers only here, please. The scale is min.

State the recorded Tmax for this entry: O=C1c2c(O)cc(O)cc2O[C@H](c2cc(O)c(O)c(O)c2)[C@H]1O [DHM, Dihydromyricetin] 15

* * *

Assay: Serum pharmacokinetics of DHM after PO and IP administration
Type: in vivo, mice
Conditions: female, C57BL/6J, mouse, serum, po, 50 mg/kg, female mice, DHM 50 mg/kg PO; mean ± SEM; read-out: Serum AUC0→24
measurement_kind: AUC(0-t) (µM·h)
Numbers only here, please. The scale is µM·h.

State the recorded AUC(0-t) for this entry: O=C1c2c(O)cc(O)cc2O[C@H](c2cc(O)c(O)c(O)c2)[C@H]1O [DHM, Dihydromyricetin] 0.728

* * *

Assay: Serum pharmacokinetics of DHM after PO and IP administration
Assay type: in vivo, mice
Conditions: male, C57BL/6J, mouse, serum, ip, 50 mg/kg, male mice, DHM 50 mg/kg IP; mean ± SEM; read-out: Serum AUC0→24
measurement_kind: AUC(0-t) (µM·h)
Numbers only here, please. The scale is µM·h.

State the recorded AUC(0-t) for this entry: O=C1c2c(O)cc(O)cc2O[C@H](c2cc(O)c(O)c(O)c2)[C@H]1O [DHM, Dihydromyricetin] 18.1

* * *

Test: Serum pharmacokinetics of DHM after PO and IP administration
Type: in vivo, mice
Settings: female, C57BL/6J, mouse, serum, ip, 50 mg/kg, female mice, DHM 50 mg/kg IP; mean ± SEM; read-out: Serum AUC0→24
measurement_kind: AUC(0-t) (µM·h)
Numbers only here, please. The scale is µM·h.

State the recorded AUC(0-t) for this entry: O=C1c2c(O)cc(O)cc2O[C@H](c2cc(O)c(O)c(O)c2)[C@H]1O [DHM, Dihydromyricetin] 17.4
